Test system: galium (catchweed bedstraw, Galium aparine)
Test Name: Test A postemergence, galium
Format: in vivo
Condition Context: 31 g ai/ha, 0 to 100 scale (0 no effect, 100 complete control)

{"Compound": "O=C1NCC(c2cccc(Oc3ncc(F)cc3F)c2)C1C(=O)Nc1cccc(F)c1F (single isomer, unassigned)", "Plant response rating, Galium": 30}
{"Compound": "CN1C[C@H](c2cccc(Oc3ccc(F)cn3)c2)[C@@H](C(=O)Nc2ccc(F)c(F)c2F)C1=O", "Plant response rating, Galium": 30}
{"Compound": "CN1CC(c2cccc(Oc3ccc(F)cn3)c2)C(C(=O)Nc2cccc(F)c2C#N)C1=O (single isomer, unassigned)", "Plant response rating, Galium": 30}
{"Compound": "CN1CC(c2cccc(Oc3ccc(F)cn3)c2)C(C(=O)Nc2cccc(C#N)c2F)C1=O (single isomer, unassigned)", "Plant response rating, Galium": 30}
{"Compound": "CN1CC(c2cccc(Oc3ncc(F)cc3F)c2)C(C(=O)Nc2ccccc2F)C1=O (single isomer, unassigned)", "Plant response rating, Galium": 40}
{"Compound": "CN1CC(c2cccc(Oc3ncc(F)cc3F)c2)C(C(=O)Nc2ccc(F)c(F)c2F)C1=O (single isomer, unassigned)", "Plant response rating, Galium": 40}
{"Compound": "CN1CC(c2cccc(Oc3ncc(F)cc3F)c2)C(C(=O)Nc2cccc(F)c2F)C1=O (single isomer, unassigned)", "Plant response rating, Galium": 50}
{"Compound": "O=C1NCC(c2cccc(CN3CCOCC3)c2)C1C(=O)Nc1cccc(F)c1F (single isomer, unassigned)", "Plant response rating, Galium": 0}
